Target: T1, C8 acylated human ghrelin (1-28) (human, n-octanoyl group on the serine at position three (Ser3))
T1 construct: 28-residue peptide hormone; In the first KinExA experiment a biotinylated form was on the beads and the unlabelled peptide was titrated in solution; also called Human C8 ghrelin; human C8 acylated ghrelin (1-28)
T1 sequence (peptide, as listed by the source): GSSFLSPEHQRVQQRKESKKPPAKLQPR
Test: KinExA solution equilibrium; constant Fab, ghrelin titrated, free Fab captured on biotin-C8-ghrelin streptavidin beads
Source text: The KinExA 3000 instrument, manufactured by Sapidyne, is used to measure binding kinetics. Briefly, streptavidin is covalently coupled to azlactone beads. Biotinylated C8 acylated human ghrelin (1-28) is subsequently bound to these streptavidin beads. The binding of free anti-ghrelin Fab to the beads is detected on the instrument. […]
pKd: −log10 of the molar value.
recorded.metric: pKd

>>> measurement("Humanized, affinity matured C2 anti-ghrelin Fab 5a1 (Fab, V domains shown, Fab; The constant domains are not described for this clone; also called Fab C2-5a1) VH: QVQLVQSGAEVKKPGASVKVSCKATGYIFTGYWIEWVRQAPGQGLEWMGDILPGSGSPNYNEKFKGRVTMTTDTSTSTAYMELRSLRSDDTAVYYCARYPIFRLRTERIAEWGQGTLVTVSS VL: DIVMTQSPDSLAVSLGERATINCRASKSVSLSGYSYMHWYQQKPGQPPKLLIYFASNLESGVPDRFSGSGSGTDFTLTISSLQAEDVAVYYCQHSIEEPYTFGQGTKLEIK")
12.00

Data origin, for the record: patent US20080118498A1
